Hey, just so you know, these numbers are from the supplement of paper PMC12317010.

- Assay Explanation: collision cross section in nitrogen (drift tube, single-field); higher = larger gas-phase ion size;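 further: chemical standards at 10 µM analysed by drift tube IMS-QTOF MS in about 3.95 torr nitrogen, mean of duplicate injections differing ≤1%, mass error below 10 ppm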
- Test Context: ion type: [M-H]; ion source: ESI; ion mode: Negative
Where a name gives a salt, the structure may show the parent alone.
Measured Property: collision cross section in nitrogen (Å²)

>>> observed("CC(=O)CC(=O)Nc1ccc2[nH]c(=O)[nH]c2c1 [3-Oxo-N-(2-oxo-2,3-dihydro-1H-benzimidazol-5-yl)butanamide]")
154.4
>>> observed("CCON=C(CC)C1=C(O)CC(c2c(C)cc(C)cc2C)CC1=O (stereo not drawn)")
188.9
>>> observed("O=S(O)CO [Hydroxymethanesulfinic acid monosodium salt dihydrate]")
112.7
>>> observed("Oc1ccc2c(c1)Cc1ccccc1-2 [2-Hydroxyfluorene]")
141.5
>>> observed("O=C1OCCN1N=Cc1ccc([N+](=O)[O-])o1")
150.8
>>> observed("Cc1nc(-c2ccc3c(c2)CCN(CCC2CCC(NC(=O)/C=C/c4ccc(F)cc4)CC2)CC3)no1 (stereo not drawn)")
226.8
>>> observed("COc1cc(O)c(C(=O)c2ccccc2)cc1S(=O)(=O)O [Sulisobenzone hydrate]")
167.7
>>> observed("CCCCCCOC(=O)c1ccc(O)cc1")
161.1
>>> observed("CC1(C)O[C@@H]2C[C@H]3[C@@H]4C[C@H](F)C5=CC(=O)C=C[C@]5(C)[C@@]4(F)[C@@H](O)C[C@]3(C)[C@]2(C(=O)CO)O1 [Fluocinolone acetonide]")
194.2
>>> observed("CCCCCCCCOC(=O)c1ccccc1C(=O)O [Octyl hydrogen phthalate]")
168
>>> observed("CCCCOP(=O)(O)OCCCC")
151.3
>>> observed("CON(C)C(=O)Nc1ccc(Cl)c(Cl)c1")
151.1
>>> observed("CCOCN(C(=O)CS(=O)(=O)O)c1c(C)cccc1CC")
172.3
>>> observed("O=C(O)c1ccc(C(=O)O)cc1")
134
>>> observed("CC(C)(c1ccccc1)c1ccc(O)c(C(C)(C)c2ccccc2)c1")
187.8
>>> observed("CCCCOC(=O)C(C)Oc1ccc(Oc2ccc(C(F)(F)F)cn2)cc1 (stereo not drawn)")
188.7
>>> observed("C=CCc1ccccc1O")
128.1
>>> observed("CCC(CO)(CO)COCC(CC)(CO)CO")
158.6
>>> observed("CC(C)C[C@H]1C(=O)N2CCC[C@H]2[C@]2(O)O[C@](NC(=O)[C@@H]3C=C4c5cccc6[nH]c(Br)c(c56)C[C@H]4N(C)C3)(C(C)C)C(=O)N12 [Bromocriptine mesylate]")
251.7
>>> observed("Cc1ccc(C(C)C)cc1O")
136.9
>>> observed("CCCCc1ccc(O)cc1")
140.6
>>> observed("CC(O)CN(CCN(CC(C)O)CC(C)O)CC(C)O (stereo not drawn) [1,1′,1′′,1′′′-(Ethylenedinitrilo)tetrakis(2-propanol)]")
168.6
>>> observed("CC(C)(O)C(=O)Nc1ccc([N+](=O)[O-])c(C(F)(F)F)c1 [Hydroxyflutamide]")
157.4
>>> observed("CC(=O)OC/C=C(\\C)CCC=C(C)C [Geranyl acetate]")
151.5
>>> observed("CC[C@@H]1C[C@H](N(Cc2cc(C(F)(F)F)cc(C(F)(F)F)c2)C(C)=O)c2cc(C(F)(F)F)ccc2N1C(=O)OC(C)C")
231.1
>>> observed("CC1=NN(c2ccc(S(=O)(=O)O)cc2)C(=O)C1N=Nc1ccccc1 (stereo not drawn) [C.I. Acid Yellow 11, sodium salt]")
199.2
>>> observed("CC(C)Oc1cc(-n2nc(C(C)(C)C)oc2=O)c(Cl)cc1Cl")
177.1
>>> observed("Cc1ncc(CO)c(CO)c1O [Pyridoxine hydrochloride]")
133.3
>>> observed("c1ccc2cc(Nc3ccc(Nc4ccc5ccccc5c4)cc3)ccc2c1")
203.8
>>> observed("O=P(O)(Oc1ccccc1)Oc1ccccc1 [Diphenyl phosphate]")
153.6
>>> observed("CCCCCC[C@@H](O)C/C=C\\CCCCCCCC(=O)O [(9Z,12R)-12-Hydroxyoctadec-9-enoic acid]")
178.6
>>> observed("COC(=O)C1=C(C)NC(C)=C(C(=O)OCCN(C)Cc2ccccc2)C1c1cccc([N+](=O)[O-])c1 (stereo not drawn) [Nicardipine hydrochloride]")
214.2
>>> observed("CC(C)(C#N)c1cc(Cn2cncn2)cc(C(C)(C)C#N)c1")
178.4
